# credit: the supplement of paper PMC7801607

System: Plasmodium falciparum NF54 stage IV/V gametocytes
experiment: % inhibition of gametocyte viability (PrestoBlue); higher = more inhibition
conditionParameters: 1 µM; 48 h
metric: % inhibition of gametocyte viability (%)
Please respond with the number in % and leave the unit unwritten.

Take a look at these entries with their results.
molecule: Clc1cc(Cl)c2c(c1)CCc1ccccc1C2n1ccnc1 (stereo not given)
measureUnit: %
% inhibition of gametocyte viability: 64.7

molecule: CCOC(=O)/C=C/[C@H](C[C@@H]1CCNC1=O)NC(=O)[C@@H](CC(=O)[C@@H](NC(=O)c1cc(C)on1)C(C)C)Cc1ccc(F)cc1
measureUnit: %
% inhibition of gametocyte viability: 27.5

With those in mind, consider the next molecule.
QUERY: Missing value: % inhibition of gametocyte viability, Plasmodium falciparum NF54 stage IV/V gametocytes, entry NC[C@H]1OB(O)c2c(OCCCO)cccc21 . Fill in?
RESULT: 10.1

----------
Tested on: Plasmodium falciparum NF54 stage IV/V gametocytes
experiment: % inhibition of gametocyte viability (ATP bioluminescence); higher = more inhibition
conditionParameters: 1 µM; 24 h
metric: % inhibition of gametocyte viability

Guide cases for % inhibition of gametocyte viability, answers given:
compound: Cc1ccc(S(=O)(=O)Nc2cccc3cccnc23)cc1
metric: % inhibition of gametocyte viability
result: < 0%

compound: Nc1nc2c(ncn2/C=C2/CC2(CO)CO)c(=O)[nH]1
metric: % inhibition of gametocyte viability
result: < 0%

compound: O=C(Nc1ccc(N2CCN(C(=O)c3ccccc3)CC2)cc1)c1ccc2c(c1)OCO2
metric: % inhibition of gametocyte viability
result: 0.482%

compound: FC(F)(F)c1cc(C(F)(F)F)c2ccc3nc(-c4nnco4)cn3c2n1
metric: % inhibition of gametocyte viability
result: < 0%

compound: C[C@@H](c1nc(-c2ccc(C#N)cc2)cs1)[C@](O)(Cn1cncn1)c1ccc(F)cc1F
metric: % inhibition of gametocyte viability
result: 2.16%

QUERY: What reported % inhibition of gametocyte viability corresponds to O=C(CCCC(F)(F)F)N1CCC(c2nc(-c3nccs3)no2)CC1 on Plasmodium falciparum NF54 stage IV/V gametocytes?
RESULT: 0.351%

QUERY: Tell me reported % inhibition of gametocyte viability for NCC(=O)Nc1ccc(-n2nc(C(F)(F)F)cc2-c2ccc3c(ccc4ccccc43)c2)cc1 , tested with Plasmodium falciparum NF54 stage IV/V gametocytes.
RESULT: 31%

QUERY: Checklist item: % inhibition of gametocyte viability tested on Plasmodium falciparum NF54 stage IV/V gametocytes, entry COc1ccc(CNC(=O)C(NS(=O)(=O)c2ccc3nc(C)sc3c2)C(C)C)cc1 (stereo not given) , value?
RESULT: < 0%

----------
Test system: Plasmodium berghei ANKA liver stage in HepG2-A16-CD81
experiment: % inhibition of liver stage parasite viability (luciferase); higher = more inhibition
conditionParameters: 5 µM; 48 h
metric: % inhibition of liver stage parasite viability (%)
Lab book: enter the figure in %, no units written.

Please review the following examples before continuing.
molecule: O=c1oc2ccc(Br)cc2cc1CSc1ncc[nH]1
measureUnit: %
measuredNumber: -13.1
//
molecule: O=S(=O)(Nc1cccc2cccnc12)c1ccccc1
measureUnit: %
measuredNumber: 0.562
//
molecule: CC(C)(C)c1ccc(Oc2ccc(N)cc2)cc1
measureUnit: %
measuredNumber: 54.4

QUERY: If you can, please state the reported % inhibition of liver stage parasite viability value of COc1ccc2nc(-c3ccccc3)cc(O)c2c1 .
RESULT: 78.6

QUERY: I am curious: what % inhibition of liver stage parasite viability value has been reported for COc1ccc2sc3c(c2c1)NC(C)CNC3=O (stereo not given) ?
RESULT: -51.9

QUERY: Sample O=C(NN1C(=O)[C@@H]2C3C=CC([C@H]4C[C@@H]34)[C@@H]2C1=O)c1ccc(C(F)(F)F)cc1 — what was its % inhibition of liver stage parasite viability?
RESULT: 26.8

----------
System: Plasmodium falciparum NF54 stage IV/V gametocytes
experiment: % inhibition of gametocyte viability (ATP bioluminescence); higher = more inhibition
conditionParameters: 1 µM; 24 h
Examples of molecules with documented % inhibition of gametocyte viability follow.

molecule: O=C(O)c1cc(-c2ccc(Br)cc2)nc2ccc(Cl)cc12
% inhibition of gametocyte viability: < 0%

molecule: CCCCCCC1c2ccc(O)cc2Oc2cc(O)ccc21
% inhibition of gametocyte viability: 4.64%

molecule: CCc1cc(Nc2cc(=O)n(CCN3CCN(C(=O)c4ccccc4)CC3)c(=O)[nH]2)ccc1C
% inhibition of gametocyte viability: < 0%

molecule: C[C@H](c1cccc2ccccc12)N(C)Cc1ccccc1
% inhibition of gametocyte viability: < 0%

molecule: CCOc1ccc(/C=N/NC(=O)C2CC2c2ccc(C(C)(C)C)cc2)cc1OCC (configuration not stated)
% inhibition of gametocyte viability: < 0%

Now for a further molecule.
QUERY: Return reported % inhibition of gametocyte viability; argument: CCC[C@H](NC(=O)[C@@H]1[C@H]2CCC[C@H]2CN1C(=O)[C@@H](NC(=O)[C@@H](NC(=O)c1cnccn1)C1CCCCC1)C(C)(C)C)C(=O)C(=O)NC1CC1
RESULT: 6.88%

----------
System: Plasmodium falciparum NF54 stage IV/V gametocytes
experiment: % inhibition of gametocyte viability (luciferase reporter); higher = more inhibition
conditionParameters: 5 µM; 48 h
List of % inhibition of gametocyte viability values.

Guide cases for % inhibition of gametocyte viability, answers given:
molecule: O=P(O)(O)C(CCCc1cccc(Oc2ccccc2)c1)S(=O)(=O)O (centres undefined)
% inhibition of gametocyte viability: 3%
//
molecule: CC(C)Nc1ncnc2c1cnn2-c1ccc(Cl)cc1
% inhibition of gametocyte viability: 62.4%
//
molecule: CN(C)CC(=O)Nc1ccc2[nH]c(=O)c3ccccc3c2c1
% inhibition of gametocyte viability: 4.93%
//
molecule: COC(=O)Nc1nc2cc(S(=O)c3ccccc3)ccc2[nH]1 (centres undefined)
% inhibition of gametocyte viability: < 0%
//
molecule: C=C[C@]1(C)C[C@@H](OC(=O)CS[C@@H]2C[C@H]3CC[C@@H](C2)N3C)[C@]2(C)[C@H](C)CC[C@]3(CCC(=O)[C@H]32)[C@@H](C)[C@@H]1O
% inhibition of gametocyte viability: < 0%

QUERY: Need % inhibition of gametocyte viability, item Oc1c(C(Nc2ccccn2)c2ccccc2)ccc2cccnc12 (centres undefined)
RESULT: 33.3%

QUERY: Requested read-out: % inhibition of gametocyte viability. Entry: Cc1nc(N(C)C(=O)Cc2ccc(-c3ccccn3)cc2)sc1S(N)(=O)=O
RESULT: < 0%

QUERY: Query (molecule): CC(C)(C)c1ccc(Oc2ccc(N)cc2)cc1 ; field requested: % inhibition of gametocyte viability
RESULT: 89.3%

QUERY: Requested field: % inhibition of gametocyte viability. Item: CC(=O)O[C@H]1C[C@@]2(C)[C@@H](C[C@@H](O)[C@H]3[C@@]4(C)CC[C@@H](O)[C@@H](C)[C@@H]4CC[C@@]32C)/C1=C(\CCC=C(C)C)C(=O)O
RESULT: < 0%

QUERY: For CCc1cc(Cc2cnc(N)nc2N)cc2c1N(C)CCC2C (centres undefined) , what is its reported % inhibition of gametocyte viability?
RESULT: < 0%

QUERY: Recorded % inhibition of gametocyte viability of CCC(C)(C)c1ccc(CC(C)CN2C[C@@H](C)O[C@@H](C)C2)cc1 (some centres undefined) , please.
RESULT: < 0%

----------
Test system: Plasmodium falciparum NF54 asexual blood stage
experiment: % inhibition of asexual blood stage proliferation (pLDH); higher = more inhibition
conditionParameters: 20 µM; 72 h
% inhibition of asexual blood stage proliferation listing for selected compounds.
Give just the numeric value; % need not be written.

Examples with answers:
compound: COc1ccc(NC(=O)CC2Sc3ncnn3C2=O)cc1 (stereo unspecified)
measuredNumber: 26.3
--
compound: CCc1cc(O)c(Oc2ccc(C(N)=O)cc2F)cc1F
measuredNumber: 62.6
--
compound: O=C(NC(=O)N1CCCc2ccccc21)c1cccc(Cl)c1
measuredNumber: 10.3

We next turn to a different compound, shown below.
QUERY: Which % inhibition of asexual blood stage proliferation value belongs to COc1ccc(SC(=O)N[C@H](CCC(=O)O)C(=O)O)cc1 ?
RESULT: 103

----------
System: Plasmodium berghei ANKA liver stage in HepG2-A16-CD81
experiment: % inhibition of liver stage parasite viability (luciferase); higher = more inhibition
conditionParameters: 5 µM; 48 h
Binary label based on % inhibition of liver stage parasite viability with cut-off 20%: below gives Yes, not below gives No.

Worked cases, answers included:
compound: O=C(CSc1nnc(Br)n1-c1ccc(C2CC2)c2ccccc12)Nc1ccc(C(=O)O)cc1Cl
labelValue: No
//
compound: CC(C)Nc1nc2cc(Cl)c(Cl)cc2n1[C@H]1O[C@@H](CO)[C@H](O)[C@@H]1O
labelValue: Yes
//
compound: CC(=O)N1c2ccccc2NC2=C(C(=O)CC(C)(C)C2)C1c1ccc(OCc2ccccc2)cc1 (stereo not given)
labelValue: No
//
compound: Nc1nc(N)c2c(Sc3ccccc3)cccc2n1
labelValue: No
//
compound: O=C1C=C(c2ccccc2)S(=O)(=O)c2ccccc21
labelValue: No
//
compound: O=C(Cc1ccccc1F)Nc1nc2ccccc2[nH]1
labelValue: Yes
//
compound: CN(Cc1ccc(C(C)(C)C)cc1)Cc1cccc2ccccc12
labelValue: Yes
//
compound: O=C(O)c1ccc(-c2ccc(O[C@H]3O[C@H](CO)[C@@H](O)[C@H](O)[C@@H]3O)cc2)cc1
labelValue: No

QUERY: Lab log: compare recorded % inhibition of liver stage parasite viability with 20%; is it strictly lower for Cc1[nH]c2ccccc2c1CCNCc1ccc(/C=C/C(=O)NO)cc1 ?
RESULT: No

QUERY: Given the entry COCCn1cnc2c(=O)[nH]c(Nc3ccccc3)nc21 , would its reported % inhibition of liver stage parasite viability be below 20%?
RESULT: Yes
